measured-target: Cholecystokinin receptor type A (Mus musculus)
Sequence (O08786 whole entry): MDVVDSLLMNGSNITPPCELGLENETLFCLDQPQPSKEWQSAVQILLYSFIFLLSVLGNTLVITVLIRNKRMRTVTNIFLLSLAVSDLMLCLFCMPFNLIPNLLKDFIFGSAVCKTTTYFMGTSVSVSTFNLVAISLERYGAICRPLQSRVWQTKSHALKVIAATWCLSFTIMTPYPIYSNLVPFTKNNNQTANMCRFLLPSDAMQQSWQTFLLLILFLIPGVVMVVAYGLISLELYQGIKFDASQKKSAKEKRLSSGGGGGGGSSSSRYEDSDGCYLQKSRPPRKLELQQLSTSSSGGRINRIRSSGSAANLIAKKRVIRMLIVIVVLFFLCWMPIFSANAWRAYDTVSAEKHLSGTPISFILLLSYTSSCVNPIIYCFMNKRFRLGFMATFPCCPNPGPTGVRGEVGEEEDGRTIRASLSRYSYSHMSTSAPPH
experimental-protocol: Concentration of compound required to inhibit binding of [125I]J-BH-CCK-8 radioligand to CCKA in mouse pancreatic membranes
Peptide text beside a SMILES is read from it. * marks the point of attachment. NHPhenethyl = c1ccc(CCN*)cc1; Boc = CC(C)(C)OC(=O)*
Reported pIC50 values for the following compounds.
# pIC50 is unitless: minus log10 of the molar concentration; print number only

Below, each entry is followed by its recorded pIC50 result.
[
  {
    "compound": "CC(C)C[C@H](NC(=O)[C@H](Cc1c[nH]c2ccccc12)NC(=O)OC(C)(C)C)C(=O)N[C@@H](CC(=O)O)C(=O)NCCc1ccccc1 (Boc-Trp-Leu-Asp-NHPhenethyl)",
    "measured-target": "Cholecystokinin receptor type A (Mus musculus)",
    "observed-result": 5.46
  },
  {
    "compound": "CN1C[C@H](C(=O)N[C@]2(C)O[C@@]3(O)[C@@H]4CCCN4C(=O)[C@H](Cc4ccccc4)N3C2=O)C=C2c3cccc4[nH]cc(c34)C[C@H]21 [ERGOTAMINE]",
    "measured-target": "Cholecystokinin receptor type A (Mus musculus)",
    "observed-result": 4.47
  }
]

Read the next record carefully.
Give the reported pIC50 for this compound. C[C@H](NC(=O)C1C=C2c3cccc4[nH]cc(c34)CC2N(C)C1)C(=O)NCCc1ccccc1 (stereo not given in full)
4.92

----------
measured-target: Gastrin/cholecystokinin type B receptor (Mus musculus)
Sequence (P56481 whole entry): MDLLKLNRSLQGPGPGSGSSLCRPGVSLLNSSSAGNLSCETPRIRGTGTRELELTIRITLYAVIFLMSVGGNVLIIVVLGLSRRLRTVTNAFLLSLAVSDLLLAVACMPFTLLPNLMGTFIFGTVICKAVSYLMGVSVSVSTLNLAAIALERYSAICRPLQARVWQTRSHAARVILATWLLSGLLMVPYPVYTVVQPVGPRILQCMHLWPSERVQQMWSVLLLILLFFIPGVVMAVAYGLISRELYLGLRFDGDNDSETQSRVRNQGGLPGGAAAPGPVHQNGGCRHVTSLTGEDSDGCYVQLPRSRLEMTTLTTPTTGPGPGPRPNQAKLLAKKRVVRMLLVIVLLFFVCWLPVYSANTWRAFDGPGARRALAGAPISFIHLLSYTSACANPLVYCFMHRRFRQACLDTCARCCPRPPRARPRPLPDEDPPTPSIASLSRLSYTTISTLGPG
experimental-protocol: Concentration of compound required to inhibit binding of [125I]J-BH-CCK-8 radioligand to CCKB in mouse fore brain membranes
Peptide text beside a SMILES is read from it. * marks the point of attachment. NHPhenethyl = c1ccc(CCN*)cc1; Boc = CC(C)(C)OC(=O)*
property-measured: IC50 (µM)
Report as a plain number; the unit µM is understood.

[
  {
    "compound": "CC(C)C[C@H](NC(=O)[C@H](Cc1c[nH]c2ccccc12)NC(=O)OC(C)(C)C)C(=O)N[C@@H](CC(=O)O)C(=O)NCCc1ccccc1 (Boc-Trp-Leu-Asp-NHPhenethyl)",
    "IC50 / µM": 0.35
  },
  {
    "compound": "CN1C[C@H](C(=O)N[C@]2(C)O[C@@]3(O)[C@@H]4CCCN4C(=O)[C@H](Cc4ccccc4)N3C2=O)C=C2c3cccc4[nH]cc(c34)C[C@H]21 [ERGOTAMINE]",
    "IC50 / µM": 17
  }
]

# next compound below
Specify IC50 for CN1C[C@H](C(=O)N[C@]2(C)O[C@@]3(O)[C@@H]4CCCN4C(=O)[C@H](Cc4ccccc4)N3C2=O)C[C@@H]2c3cccc4[nH]cc(c34)C[C@H]21 [DIHYDROERGOTAMINE] and stop.
23
